experiment: logP determination by HPLC (EEC directive 79/831 Annex V. A8); format: physicochemical; details: HPLC gradient method, acetonitrile/0.1% aqueous phosphoric acid; Table 1
Measured logP* of individual entries
Respond with the number and no other words.

Consider the worked cases shown below.
Molecule	logP*
CC(C)ONc1c(-c2ccccc2F)c(Cl)nc2ncnn12	2.42
Fc1ccccc1-c1c(Cl)nc2ncnn2c1NOCc1ccccc1	2.83
Fc1ccccc1-c1c(Cl)nc2ncnn2c1NOCc1cc(Cl)cc(Cl)c1	3.69
CCC(C)ONc1c(-c2ccccc2F)c(Cl)nc2ncnn12 (stereo not drawn)	2.69
NN(CC1CC1(Cl)Cl)c1c(-c2c(F)cc(F)cc2F)c(Cl)nc2ncnn12 (stereo not drawn)	3.11
Fc1cc(F)c(-c2c(Cl)nc3ncnn3c2NOCc2ccccc2Cl)c(F)c1	3.22
Fc1cc(F)c(-c2c(Cl)nc3ncnn3c2NOCc2ccccc2)c(F)c1	2.92
CCCCONc1c(-c2c(F)cccc2F)c(Cl)nc2ncnn12	2.83

Below: the item to evaluate.
**Query** In one line, give reported logP* of the entry Fc1cccc(F)c1-c1c(Cl)nc2ncnn2c1NOCc1ccccc1Cl .
**Result** 3.07

* * *

test: logP determination by HPLC (EEC directive 79/831 Annex V. A8); format: physicochemical; settings: HPLC gradient method, acetonitrile/0.1% aqueous phosphoric acid; Table 1
A collection of molecules and their measured logP*
# respond with the number and nothing more

Below: 4 molecules and their reported logP*.
1. CC(C)N(N)c1c(-c2ccc(C(F)(F)F)cc2F)c(Cl)nc2ncnn12 3.08
2. CC(C)CCNNc1c(-c2c(F)cc(F)cc2F)c(Cl)nc2ncnn12 3.25
3. Fc1ccccc1-c1c(Cl)nc2ncnn2c1NOCc1ccccc1Cl 3.06
4. Fc1cc(F)c(-c2c(Cl)nc3ncnn3c2NOCc2ccc(OC(F)(F)F)cc2)c(F)c1 3.54

Next molecule, logP* to be filled in.
**Query** Tell us which logP* value is on record for Fc1cc(F)c(-c2c(Cl)nc3ncnn3c2NNCCN2CCOCC2)c(F)c1
**Result** 1.14

* * *

assay: logP determination by HPLC (EEC directive 79/831 Annex V. A8); format: physicochemical; conditions: HPLC gradient method, acetonitrile/0.1% aqueous phosphoric acid; Table 1
Measured metric: logP*
Enter the number alone.

Known results for compounds:
Compound	logP*
CCOC(=O)NN(CC(C)C)c1c(-c2c(F)cc(F)cc2F)c(Cl)nc2ncnn12 [Example 168]	2.99
Fc1cccc(F)c1-c1c(Cl)nc2ncnn2c1NOC1CCCCO1 (centres unmarked) [Example 51]	2.43
CC(C)(C)NNc1c(-c2c(F)cc(F)cc2F)c(Cl)nc2ncnn12 [Example 21]	2.86
CCCCONc1c(-c2c(F)cc(F)cc2F)c(Cl)nc2ncnn12 [Example 85]	3.01
CCC(C)N(N)c1c(-c2cccc3c2OC(F)(F)O3)c(Cl)nc2ncnn12 (centres unmarked) [Example 150]	3.27
CCC(C)N(N)c1c(-c2cc(C(F)(F)F)ccc2Cl)c(Cl)nc2ncnn12 (centres unmarked) [Example 146]	3.99

**Query** Answer with the recorded logP* of Fc1cc(F)c(-c2c(Cl)nc3ncnn3c2NNC2CCCCC2)c(F)c1 [Example 35] only.
**Result** 3.28

**Query** Fill in reported logP* for this entry: CC(C)CN(N)c1c(-c2c(Cl)cc(C(F)(F)F)cc2Cl)c(Cl)nc2ncnn12 [Example 136]
**Result** 3.85

**Query** Find the measured logP* of N#CCCNNc1c(-c2c(F)cc(F)cc2F)c(Cl)nc2ncnn12 [Example 23] and report it.
**Result** 2.03

**Query** Check the records and state logP* for CCC(C)N(N)c1c(-c2cccc(C(F)(F)F)c2Cl)c(Cl)nc2ncnn12 (centres unmarked) [Example 144]
**Result** 3.44

**Query** Tell us which logP* value is on record for Fc1ccc(CONc2c(-c3ccccc3F)c(Cl)nc3ncnn23)cc1 [Example 62]
**Result** 2.82

**Query** Please give measured logP* of the following entry: CC(C)CNNc1c(-c2c(Cl)cccc2Cl)c(Cl)nc2ncnn12 [Example 156]
**Result** 3.18

**Query** Give a short answer stating reported logP* for CC(C)CN(N)c1c(-c2c(Cl)c(F)cc(C(F)(F)F)c2Cl)c(Cl)nc2ncnn12 [Example 126] .
**Result** 2.58

**Query** Given Fc1cc(F)c(-c2c(Cl)nc3ncnn3c2NNC2CCCC2)c(F)c1 [Example 55] , respond with its logP*.
**Result** 2.98

* * *

test: logP determination by HPLC (EEC directive 79/831 Annex V. A8); format: physicochemical; details: HPLC gradient method, acetonitrile/0.1% aqueous phosphoric acid; Table 1
Measured metric: logP*
Keep it simple and answer with nothing but the number.

Compound	logP*
Fc1c(F)c(F)c(-c2c(Cl)nc3ncnn3c2NOCc2ccc(Cl)cc2Cl)c(F)c1F [Example 114]	4.02

**Query** Identify measured logP* associated with NN(c1c(-c2c(F)cc(F)cc2F)c(Cl)nc2ncnn12)C1CCCCCC1 [Example 141]
**Result** 3.66

**Query** Provide logP* value for the following compound: Fc1cccc(F)c1-c1c(Cl)nc2ncnn2c1NOCc1cccc(Cl)c1 [Example 46]
**Result** 3.12

**Query** Query logP* for COCCN(N)c1c(-c2c(F)cc(F)cc2F)c(Cl)nc2ncnn12 [Example 128]
**Result** 2.26

* * *

assay: logP determination by HPLC (EEC directive 79/831 Annex V. A8); assay type: physicochemical; settings: HPLC gradient method, acetonitrile/0.1% aqueous phosphoric acid; Table 1
Quick list: logP* per entry.
Output: the number by itself.

Compound	logP*
Fc1ccc(CONc2c(-c3c(F)c(F)c(F)c(F)c3F)c(Cl)nc3ncnn23)cc1	3.3
CCCN(N)c1c(-c2c(F)cc(F)cc2F)c(Cl)nc2ncnn12	2.58
CC(C)(O)CNNc1c(-c2c(F)cc(F)cc2F)c(Cl)nc2ncnn12	2.09
CCC(C)NNc1c(-c2cccc3c2OC(F)(F)O3)c(Cl)nc2ncnn12 (stereo not shown)	3.21
CCC(C)ONc1c(-c2c(F)cccc2F)c(Cl)nc2ncnn12 (stereo not shown)	2.67
NN(CC1CCC1)c1c(-c2c(F)cc(F)cc2F)c(Cl)nc2ncnn12	3.06
CNN(C)c1c(-c2ccccc2F)c(Cl)nc2ncnn12	2.13
CC(=O)NN(CC(C)C)c1c(-c2c(F)cc(F)cc2F)c(Cl)nc2ncnn12	2.25

**Query** Hello, please tell me recorded logP* for this one: Fc1c(F)c(F)c(-c2c(Cl)nc3ncnn3c2NOCc2ccc(C(F)(F)F)cc2)c(F)c1F
**Result** 3.77

**Query** Entry Fc1c(F)c(F)c(-c2c(Cl)nc3ncnn3c2NOC2CCCCO2)c(F)c1F (stereo not shown) needs its logP* filled in; supply it.
**Result** 3.04

**Query** Note down logP* recorded for CONc1c(-c2c(F)c(F)c(F)c(F)c2F)c(Cl)nc2ncnn12
**Result** 2.53

**Query** Supply measured logP* of CCC(C)NNc1c(-c2cc(C(F)(F)F)ccc2Cl)c(Cl)nc2ncnn12 (stereo not shown) [Example 149] in your reply.
**Result** 3.47

**Query** Indicate its recorded logP*; the compound in question is CNN(C)c1c(-c2c(F)cc(F)cc2F)c(Cl)nc2ncnn12
**Result** 2.33

**Query** Respond only with logP* recorded for CN(C)Nc1c(-c2ccccc2F)c(Cl)nc2ncnn12
**Result** 2.26

**Query** Retrieve logP* measured for NN(CC1CCCO1)c1c(-c2c(F)cc(F)cc2F)c(Cl)nc2ncnn12 (stereo not shown) and print it.
**Result** 2.55

**Query** Check the records and state logP* for Fc1cc(F)c(-c2c(Cl)nc3ncnn3c2NOCc2c(Cl)cccc2Cl)c(F)c1
**Result** 3.32

**Query** Check the records and state logP* for Fc1cccc(F)c1-c1c(Cl)nc2ncnn2c1NOCc1ccc(C(F)(F)F)cc1
**Result** 3.32

**Query** Tell me its logP* given Fc1cc(F)c(-c2c(Cl)nc3ncnn3c2NOCc2ccc(C(F)(F)F)cc2)c(F)c1 as the entry.
**Result** 3.38

**Query** Name the recorded logP* of the item CON(C)c1c(-c2ccccc2F)c(Cl)nc2ncnn12 in your answer.
**Result** 2.33

**Query** # return recorded logP* for entry Fc1ccccc1-c1c(Cl)nc2ncnn2c1NOC1CCCCO1 (stereo not shown)
**Result** 2.46

* * *

Entries annotated with measured logP*
test: logP determination by HPLC (EEC directive 79/831 Annex V. A8); assay type: physicochemical; conditions: HPLC gradient method, acetonitrile/0.1% aqueous phosphoric acid; Table 1
Just the number, please, no unit attached.

Would you please look over these solved cases?
Compound	Measured
CCNNc1c(-c2ccccc2F)c(Cl)nc2ncnn12 [Example 89]	2.06
CC(NNc1c(-c2c(F)cc(F)cc2F)c(Cl)nc2ncnn12)C1CC1 (stereo not shown) [Example 25]	3.02
Fc1cc(F)c(-c2c(Cl)nc3ncnn3c2NNCC(F)(F)C(F)F)c(F)c1 [Example 29]	2.58
Cc1ccc(CONc2c(-c3c(F)cc(F)cc3F)c(Cl)nc3ncnn23)cc1 [Example 13]	3.25
C=CCONc1c(-c2c(F)cc(F)cc2F)c(Cl)nc2ncnn12 [Example 42]	2.48

**Query** Please report the measured logP* for Fc1c(F)c(F)c(-c2c(Cl)nc3ncnn3c2NOCc2ccccc2Cl)c(F)c1F [Example 116]
**Result** 3.58
